Where these numbers come from: patent US10590128B2

Molecular target: human dopamine D2 receptor (hD2R) (Homo sapiens, UniProt P14416)
Sequence (P14416 whole entry): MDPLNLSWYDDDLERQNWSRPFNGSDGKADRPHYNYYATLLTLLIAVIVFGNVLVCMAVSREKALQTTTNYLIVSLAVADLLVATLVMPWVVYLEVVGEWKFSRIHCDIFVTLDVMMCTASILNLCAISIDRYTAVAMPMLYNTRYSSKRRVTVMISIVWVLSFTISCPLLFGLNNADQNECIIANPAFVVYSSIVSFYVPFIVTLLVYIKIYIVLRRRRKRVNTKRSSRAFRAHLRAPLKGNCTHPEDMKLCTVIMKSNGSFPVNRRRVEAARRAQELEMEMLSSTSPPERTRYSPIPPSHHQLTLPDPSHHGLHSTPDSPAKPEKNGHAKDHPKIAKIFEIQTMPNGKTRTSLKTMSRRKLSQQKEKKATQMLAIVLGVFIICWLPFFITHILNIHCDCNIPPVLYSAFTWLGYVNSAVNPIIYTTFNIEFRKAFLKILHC
Assay: Human D2 receptor binding assay ([^3H]-Spiperone)
Details: CHO cells expressing hD2R, geometric mean of 2-5 determinations unless marked b (single determination)
Measured pKi values are reported for all entries that follow.
// pKi here means minus log10 of the molar concentration (mol/L)

# example entries with known answers
compound	study-system	reported-value
COc1nc2c(cc1NS(=O)(=O)c1ccc(CC3CCCC3)nc1)CCN(C)CC2 [Example 131]	human dopamine D2 receptor (hD2R) (Homo sapiens, UniProt P14416)	7.44
COc1nc2c(cc1NS(=O)(=O)c1ccc(C3CC(F)(F)CCO3)cc1)CCN(C)CC2 (racemic) [Example 40]	human dopamine D2 receptor (hD2R) (Homo sapiens, UniProt P14416)	6.87
CCN1CCc2cc(NS(=O)(=O)c3ccc(OC4CCCC4)cc3)c(OC)nc2CC1 [Example 63]	human dopamine D2 receptor (hD2R) (Homo sapiens, UniProt P14416)	7.94
COc1nc2c(cc1NS(=O)(=O)c1ccc([C@H]3CCCO3)cc1)CCN(C)CC2 [Example 99]	human dopamine D2 receptor (hD2R) (Homo sapiens, UniProt P14416)	6.50

# input for lookup
-- ask Record request: pKi value, item CCOc1ccc(S(=O)(=O)Nc2cc3c(nc2OC)CCN(C)CC3)cc1 [Example 28]
-- reply 6.91
